# Tested on: MCF7
# test protocol: Antiproliferative activity against human MCF7 cells after 72 hrs by MTT assay
# Type: functional, cell-based
# run parameters: MCF7, 72 h
property measured: IC50 (µM)

{"columns": ["molecule", "assay value"],
 "data": [
  ["COc1ccc(C2CCCN2CC(=O)Nc2ccccc2-c2ccccc2)cc1 (stereo unspecified)", 7]
]}

a = CSc1ccccc1NC(=O)c1cnn2c(C(F)F)cc(-c3ccc(C)cc3)nc12
b = CCOC(=O)c1c(C)[nH]c(C)c1C(=O)CSC1=Nc2ccccc2C2CC=NN12 (stereo unspecified)
Qu. Between the two listed entries a and b , which has its IC50 at the higher number? Record your answer as the label of the chosen record.
Ans. b
(b: 32 µM, a: 6 µM)

I = NC(=O)C1CCN(c2nc(CSc3ccccc3)nc3sc4c(c23)CCCC4)CC1
II = COc1cc2c(=O)c(C(=O)c3ccc(C)c(C)c3)cn(Cc3ccc(F)cc3)c2cc1OC
III = CCOC(=O)C1CCCN(C(=O)c2cc(-c3ccc(Cl)cc3)nc3ccccc23)C1 (stereo unspecified)
IV = CCOC(=O)c1c(NC(=O)C2=C(C)N=C(S)NC2c2ccc(CC)cc2)sc(C)c1C (stereo unspecified)
Qu. Arrange these 4 molecules in increasing order of IC50. Would you mind listing the labels in the order asked for?
Ans. II, I, III, IV

P = CCCCN1C(=O)c2[nH]nc(-c3ccccc3O)c2C1c1ccc(OCC)cc1 (stereo unspecified)
Q = CC(=O)Nc1ccc(C2=CC(c3ccc(Cl)cc3Cl)n3nc(CCCO)nc3N2)cc1 (stereo unspecified)
R = COc1ccc(-c2cc(C(F)F)n3ncc(C(=O)Nc4cc(Cl)ccc4O)c3n2)cc1
Qu. Sequence the entries by IC50, beginning with the highest number. Would you mind listing the labels in the order asked for?
Ans. Q, P, R

----------
# test protocol: Apparent permeability from apical to basolateral side in MDCK2-MDR1 cells at 75 uM after 2 hrs UV-visible spectroscopy
# Format: ADME, cell-based, Canis lupus familiaris
# run parameters: dog, MDCK-MDR1
property measured: Papp A→B at 2 h, 75 µM (×10⁻⁶ cm/s)

{"columns": ["compound", "property measured", "assay value"],
 "data": [
  ["Cn1cc(SCC(=O)N2N=C(c3cccs3)CC2c2ccc(F)cc2)c2ccccc21 (configuration not stated)", "Papp A→B at 2 h, 75 µM", 39],
  ["NC(=O)C1CCN(c2nc(CSc3ccccc3)nc3sc4c(c23)CCCC4)CC1", "Papp A→B at 2 h, 75 µM", 45],
  ["COc1ccc(-c2cc(C(F)F)n3ncc(C(=O)Nc4cc(Cl)ccc4O)c3n2)cc1", "Papp A→B at 2 h, 75 µM", 18]
]}

a = Cc1cccc(-c2nnc(SCC(=O)c3ccc(O)cc3O)n2-c2ccccc2)c1
b = CCOC(=O)c1c(C)[nH]c(C)c1C(=O)CSC1=Nc2ccccc2C2CC=NN12 (configuration not stated)
Qu. When the recorded Papp A→B at 2 h, 75 µM values are compared, which is smaller: that of a or that of b ? Record your answer as the label of the chosen record.
Ans. a

A = O=C(c1c[nH]c2ccccc12)C(NCc1ccc2c(c1)OCO2)c1ccccc1 (configuration not stated)
B = CCCCN1C(=O)c2[nH]nc(-c3ccccc3O)c2C1c1ccc(OCC)cc1 (configuration not stated)
Qu. Between the two listed entries A and B , which has its Papp A→B at 2 h, 75 µM at the higher number? Record your answer as the label of the chosen record.
Ans. A
(A: 90 ×10⁻⁶ cm/s, B: 63 ×10⁻⁶ cm/s)

----------
# Tested on: SH-SY5Y
# test protocol: Antiproliferative activity against human SH-SY5Y cells after 72 hrs by MTT assay
# Format: functional, cell-based
property measured: IC50 (µM)

Below, each entry is followed by its recorded IC50 result.
{"columns": ["molecule", "property measured", "assay value"],
 "data": [
  ["Cc1cc(C)c(O)c(-c2n[nH]c3c2C(c2ccccc2)N(CCCO)C3=O)c1 (centres undefined)", "IC50", 51.3],
  ["Cc1ccc(-n2c(SCC(=O)N3CC(=O)Nc4ccccc43)nnc2-c2cccc(C)c2)cc1", "IC50", 72.4],
  ["Cc1n[nH]c(O)c1C(c1cccc(OCc2ccc(F)cc2)c1)c1c(O)n[nH]c1C", "IC50", 43.7],
  ["Cn1cc(SCC(=O)N2N=C(c3cccs3)CC2c2ccc(F)cc2)c2ccccc21 (centres undefined)", "IC50", 11.7],
  ["COc1ccc(-c2nc3ccccc3c3nnc(SCc4ncc(C)c(OC)c4C)n23)cc1", "IC50", 66]
]}

1 = COc1ccc(C2CCCN2CC(=O)Nc2ccccc2-c2ccccc2)cc1 (centres undefined)
2 = CC(=O)Nc1ccc(C2=CC(c3ccc(Cl)cc3Cl)n3nc(CCCO)nc3N2)cc1 (centres undefined)
Qu. Between the two listed entries 1 and 2 , which has its IC50 at the higher number? Record your answer as the label of the chosen record.
Ans. 2

I = COc1ccc(-n2c(SCC(=O)c3ccc(OC(F)F)cc3)nc3ccccc32)cc1
II = CCCSc1nnc(N2C(=O)C(O)=C(C(=O)c3ccco3)C2c2ccccc2F)s1 (centres undefined)
III = CCCCN1C(=O)c2[nH]nc(-c3ccccc3O)c2C1c1ccc(OCC)cc1 (centres undefined)
Qu. Sequence the entries by IC50, beginning with the highest number. Would you mind listing the labels in the order asked for?
Ans. I, III, II
(I: 52.5 µM, III: 22.5 µM, II: 10.3 µM)

----------
# Tested on: HeLa
# test protocol: Antiproliferative activity against human HeLa cells after 72 hrs by MTT assay
# Assay type: functional, cell-based
property measured: IC50 (µM)

Below, each entry is followed by its recorded IC50 result.
{"columns": ["molecule", "target or test system", "IC50 (µM)"],
 "data": [
  ["COc1cc2c(=O)c(C(=O)c3ccc(C)c(C)c3)cn(Cc3ccc(F)cc3)c2cc1OC", "HeLa", 36.3],
  ["Cc1ccc(-n2c(SCC(=O)N3CC(=O)Nc4ccccc43)nnc2-c2cccc(C)c2)cc1", "HeLa", 83]
]}

a = Cc1ccc(NC(=O)Cn2c(C(F)(F)F)nc3ccccc32)c(-c2nc(C3CC3)n[nH]2)c1
b = C=CCOc1ccccc1CN(C(=O)CN1CCNC(=O)C1)c1ccc2c(c1)OCO2
c = CCOC(=O)c1c(NC(=O)C2=C(C)N=C(S)NC2c2ccc(CC)cc2)sc(C)c1C (stereo unspecified)
d = O=C(c1c[nH]c2ccccc12)C(NCc1ccc2c(c1)OCO2)c1ccccc1 (stereo unspecified)
Qu. Sequence the entries by IC50, beginning with the highest number. Would you mind listing the labels in the order asked for?
Ans. b, c, d, a

----------
# System: MCF7
# test protocol: Antiproliferative activity against human MCF7 cells after 72 hrs by MTT assay
# Assay type: functional, cell-based
# run parameters: MCF7, 72 h
property measured: IC50 (µM)

Below, each entry is followed by its recorded IC50 result.
{"columns": ["molecule", "unit tag", "IC50"],
 "data": [
  ["O=C(c1c[nH]c2ccccc12)C(NCc1ccc2c(c1)OCO2)c1ccccc1 (stereo unspecified)", "µM", 26],
  ["O=C(Cn1cc(CNC2(c3ccccc3F)CCCC2)c2ccccc21)NC1CC1", "µM", 29],
  ["Cc1cccc(-c2nnc(SCC(=O)c3ccc(O)cc3O)n2-c2ccccc2)c1", "µM", 67.2],
  ["Cn1cc(SCC(=O)N2N=C(c3cccs3)CC2c2ccc(F)cc2)c2ccccc21 (stereo unspecified)", "µM", 37.1],
  ["CCOC(=O)c1c(NC(=O)C2CC(=O)Nc3ccccc32)sc(C)c1C (stereo unspecified)", "µM", 9],
  ["Cc1cc(C)c(O)c(-c2n[nH]c3c2C(c2ccccc2)N(CCCO)C3=O)c1 (stereo unspecified)", "µM", 54],
  ["CCC(c1nnc(SCC(=O)c2[nH]c(C)c(C(C)=O)c2C)n1Cc1ccccc1)N(C)C (stereo unspecified)", "µM", 10],
  ["COc1ccc(NS(=O)(=O)c2ccc3c(c2)N(C(C)=O)CC(C)O3)cc1Cl (stereo unspecified)", "µM", 23]
]}

a = Cc1cccc(-n2ccnc2SCC(=O)c2ccc3c(c2)CCC(=O)N3)c1
b = Cc1n[nH]c(O)c1C(c1cccc(OCc2ccc(F)cc2)c1)c1c(O)n[nH]c1C
c = C=CCOc1ccccc1CN(C(=O)CN1CCNC(=O)C1)c1ccc2c(c1)OCO2
d = COc1ccc(-c2nc3ccccc3c3nnc(SCc4ncc(C)c(OC)c4C)n23)cc1
e = Cc1ccc(NC(=O)Cn2c(C(F)(F)F)nc3ccccc32)c(-c2nc(C3CC3)n[nH]2)c1
Qu. Sequence the entries by IC50, beginning with the highest number. Would you mind listing the labels in the order asked for?
Ans. a, c, e, b, d

I = O=C(CSc1nnc(-c2c[nH]c3ccccc23)n1CC1CCCO1)c1ccc(Cl)s1 (stereo unspecified)
II = Cc1cccc(-n2nc(C)c3c2NC2=C(C(=O)CC(C)(C)C2)C3c2ccc(O)cc2)c1 (stereo unspecified)
Qu. Between the two listed entries I and II , which has its IC50 at the higher number? Record your answer as the label of the chosen record.
Ans. I
(I: 66 µM, II: 25 µM)

a = COc1ccc(-n2c(SCC(=O)c3ccc(OC(F)F)cc3)nc3ccccc32)cc1
b = Cc1ccc(-n2c(SCC(=O)N3CC(=O)Nc4ccccc43)nnc2-c2cccc(C)c2)cc1
Qu. Between the two listed entries a and b , which has its IC50 at the higher number? Record your answer as the label of the chosen record.
Ans. b
(b: 68 µM, a: 9 µM)
